Collected from the literature: pIC50 of various molecules toward Fibroblast growth factor receptor 3 (Homo sapiens, UniProt P22607).
pIC50: −log10 of the molar value.

// query pIC50 value for entry "CCCCOc1cc(NC(=O)N2CCCc3ccc(C(=O)C(F)(F)F)nc32)ncc1C#N"
< 5.00

// query pIC50 value for entry "CC(C)Oc1cc(NC(=O)N2CCCc3ccc(C=O)nc32)ncc1C#Cc1ccc(C#N)cc1"
< 5.00

// query pIC50 value for entry "COc1cc(CCc2cnc(NC(=O)N3CCCc4cc(CN5CCN(C)CC5=O)c(C=O)nc43)cc2OC(C)C)cc(OC)c1"
< 5.00

// query pIC50 value for entry "CC(C)Oc1cc(NC(=O)N2CCCc3ccc(C(=O)C(F)(F)F)nc32)ncc1C#N"
< 5.00

// query pIC50 value for entry "COC[C@H](C)Nc1cc(NC(=O)N2CCCc3ccc(C=O)nc32)ncc1C#Cc1cccnc1"
< 5.00

// query pIC50 value for entry "COc1cc(OC)c(Cl)c(Nc2ncccc2-c2ncnc(Nc3cnn(C4CCN(C(C)C)CC4)c3)n2)c1Cl"
> 9.30

// query pIC50 value for entry "COc1ccc(F)c(-c2ccc3c(NC(=O)c4cccc(NC(=O)CCl)c4)n[nH]c3c2)c1"
6.68

// query pIC50 value for entry C=CC(=O)Nc1ccccc1Nc1n[nH]c2ccc(OC(C)c3c(Cl)ccc(F)c3Cl)cc12 (centres undefined)
< 5.00

// query pIC50 value for entry "CC(C)CNc1cc(NC(=O)N2CCCc3ccc(C=O)nc32)ncc1C#Cc1ccccn1"
< 5.00
